- Tested on: SR leukemia
- test-summary: NCI tumour cell line growth inhibition, 48 h
property-name: TGI

molecule=Nc1cccc(OCc2nc(N)nc(N)c2-c2ccc(Cl)cc2)c1 tgt="SR leukemia" property_name=TGI recorded_measurement="> 100 µM"
molecule="NC(CCCCNc1ccn(C2OC(CO)C(O)C2O)c(=O)n1)C(=O)O (stereo unspecified)" tgt="SR leukemia" property_name=TGI recorded_measurement="> 100 µM"
molecule="CC(=O)c1cccc(NC2C(N)C(NC(=O)N(C)C)(C(C)O)C(C)(O)C2(O)COC(=O)c2c(C)cccc2O)c1 (stereo unspecified)" tgt="SR leukemia" property_name=TGI recorded_measurement="> 100 µM"
molecule=COc1cc([C@H]2Oc3c(c(O)cc4oc(-c5ccccc5)cc(=O)c34)O[C@@H]2CO)ccc1O tgt="SR leukemia" property_name=TGI recorded_measurement="36.7 µM"
molecule=COC1=C(OC)CCC(/C(C#N)=C/c2ccc(OC)c(OC)c2)=C1 tgt="SR leukemia" property_name=TGI recorded_measurement="> 100 µM"
molecule="C=C(C)[C@H]1CC/C(C)=C/CCC(C)C(=O)CC/C(CO)=C\\[C@@H]1O (stereo partly specified)" tgt="SR leukemia" property_name=TGI recorded_measurement="> 100 µM"
molecule="C[C@@H]1C(O)CC[C@H](C)C12CC=CC2=O (stereo partly specified)" tgt="SR leukemia" property_name=TGI recorded_measurement="> 100 µM"
molecule=Cc1nc(-c2nc([N+](=O)[O-])c([N+](=O)[O-])[nH]2)cs1 tgt="SR leukemia" property_name=TGI recorded_measurement="> 100 µM"
molecule="CCOC(=O)C(C[Si](C)(C)C)P(=O)(OCC)OCC (stereo unspecified)" tgt="SR leukemia" property_name=TGI recorded_measurement="> 100 µM"
molecule="COc1ccc(C(O)c2cc3c(N)c(C(=O)Nc4cccc(Br)c4)sc3nc2C)cc1 (stereo unspecified)" tgt="SR leukemia" property_name=TGI recorded_measurement="> 32.7 µM"
molecule="CC(C)(C)OC(=O)N1CCC23CCCC2C(=O)CC=C13 (stereo unspecified)" tgt="SR leukemia" property_name=TGI recorded_measurement="> 100 µM"
molecule="C=C(C)C1/C=C(/C(C)C)CC[C@]2(C)O[C@@H]2CC[C@H](C)CC1=O (stereo partly specified)" tgt="SR leukemia" property_name=TGI recorded_measurement="58.5 µM"
molecule=O=c1[nH]c(=S)[nH]c(O)c1/C=C1\C=CC=N1 tgt="SR leukemia" property_name=TGI recorded_measurement="18 µM"
molecule=CC(=O)/C(C)=N/N/C(N)=N\S(=O)(=O)c1cc(C(=O)Nc2ccccc2)c(Cl)cc1SCc1ccccc1 tgt="SR leukemia" property_name=TGI recorded_measurement="> 100 µM"
molecule=COc1cc2c(cc1OC)CCN=C2 tgt="SR leukemia" property_name=TGI recorded_measurement="> 100 µM"
molecule="C[Se]C(=O)CC1=C2C=C(F)C=CC2/C(=C\\c2ccc(S(C)=O)cc2)C1C (stereo unspecified)" tgt="SR leukemia" property_name=TGI recorded_measurement="> 100 µM"
molecule=N#Cc1c(NC(=S)NCc2ccccc2)sc2c1CCN(N1CCc3c(sc(NC(=S)NCc4ccccc4)c3C#N)C1)C2 tgt="SR leukemia" property_name=TGI recorded_measurement="> 100 µM"
molecule="CC1=C2C(c3ccccc3)(c3ccccc3)C3C=CC2(C=N3)N(C(=O)NC2CCCCC2)C1=O (stereo unspecified)" tgt="SR leukemia" property_name=TGI recorded_measurement="37.7 µM"
molecule=S=C1C=C(c2ccccc2)Sc2ccccc2N1 tgt="SR leukemia" property_name=TGI recorded_measurement="> 100 µM"
molecule=Cn1ccnc1C(=O)/C=C/c1ccc(C(=O)Nc2nc3ccccc3[nH]2)cc1 tgt="SR leukemia" property_name=TGI recorded_measurement="> 25 µM"
molecule=COC(=O)CCCCC/C(=C\C(=O)C(Cl)(Cl)Cl)OC tgt="SR leukemia" property_name=TGI recorded_measurement="45.2 µM"

Taken from PubChem BioAssay (NCI).
